Test system: HCT-15
Assay endpoint: GI50

**Query** What value of measured GI50 is listed for COCCOC(C)C(=O)C(O)S(=O)(=O)O (stereo not drawn) ?
**Result** > 100 µM

**Query** What value of measured GI50 is listed for COc1cccc(CCN2CCN(CCCc3ccccc3)CC2)c1 ?
**Result** 31.7 µM

**Query** What value of measured GI50 is listed for Cc1ccc(-n2c(Cn3nnc(-c4cccnc4)n3)nn(C3OC(COC(=O)c4ccccc4)C(OC(=O)c4ccccc4)C3OC(=O)c3ccccc3)c2=S)cc1 (stereo not drawn) ?
**Result** > 100 µM

* * *

Tested on: SK-MEL-28
Experiment: NCI tumour cell line growth inhibition, 48 h
Activity calls are given as the source filed them. Rule as the data show it: active = GI50 up to about 1.1 µM and inactive = higher.
Allowed answers: t (active), f (inactive)

**Query** Recorded call for N#Cc1c(-c2ccc(Cl)cc2)c2c(n(C3OC(CO)C(O)C(O)C3O)c1=S)CCCC2 (configuration not stated) ?
**Result** f

**Query** Recorded call for Cc1c2oc3c(C)cc(F)c(C(=O)NC4C(=O)NC(C(C)C)C(=O)N5CCCC5C(=O)N(C)CC(=O)N(C)C(C(C)C)C(=O)OC4C)c3nc-2c(C(=O)NC2C(=O)NC(C(C)C)C(=O)N3CCCC3C(=O)N(C)CC(=O)N(C)C(C(C)C)C(=O)OC2C)c(N)c1=O (configuration not stated) ?
**Result** t

**Query** Recorded call for O=C(NN1C(=O)C(Cl)C1c1cccc([N+](=O)[O-])c1)c1ccccc1O (configuration not stated) ?
**Result** f

**Query** Recorded call for C[C@]12CC[C@@H]3c4ccccc4CC[C@H]3[C@@H]1CC[C@@H]2O ?
**Result** f

**Query** Recorded call for Cc1sc2ncnc(NCCc3ccccc3)c2c1C ?
**Result** f

**Query** Recorded call for CC1N(C)C(=O)OC12CCN(CCCC(=O)c1ccc(F)cc1)CC2 (configuration not stated) ?
**Result** f

**Query** Recorded call for O=C1O/C(=C(/c2ccc(Cl)cc2)c2nc3ccccc3[nH]2)C(O)=C1c1ccc(Cl)cc1 ?
**Result** f
